Tested on: MS2 coat protein
Assay: apparent KD of MS2 coat protein; designed switch direction (-1 OFF switch, 1 ON switch): -1; higher = weaker reporter binding
Conditions: input ligand: none
Measured Attribute: apparent KD of MS2 coat protein (nM)
Please state the figure in nM; there is no need to write the unit.

Some entries whose results are on file:
ACUUGUCAUGAGGAUAUGCGACGCAACGGUGGAGCAGAAGGCGUGACAUGAGGAUCACCCAUGUCAGUUCGCGA [eternacac ex6r4 sub32] (Eterna round: R97, puzzle: Exclusion 6) ... 16.1
AAUUAGUAUGUGAGGAUAUUGACGUAAUGACUGGUUAAGAAGGCACAUGAGGAUCACCCAUGUGGGAAGUCACG [JR_BMEx4_Sub011] (Eterna round: R97, puzzle: Brourd's mod of Exclusion 4) ... 15.2
AGGUCACAUGAGGAUCACCCAUGUCAGGAUAUCUACAUUGAAGCCUCGGCUUCAAUGUAGAGAAGGGAUAAUUA [E1/8-B2] (Eterna round: R97, puzzle: Exclusion 1) ... 44.7
UUAAUGACUGUGAGGAUAUCGGAUAGAUAGAUAUUUGAGAAGGUACAUGAGGAUCACCCAUGUGUGAUUAGAGA [Brourd's EX4 #66] (Eterna round: R97, puzzle: Brourd's mod of Exclusion 4) ... 253

Let us examine a further case.
Query (sequence): CUAGCUAUUGUAGGAUAUCGAUGUGUUUCACAUCGAGAAGGACAUGAGGAUCACCCAUGUGAAGGAUCGUGAGAUCCAAGCUAG [JL ENG1 3.77] (Eterna round: R96, puzzle: Exclusion NG 1) ; field requested: apparent KD of MS2 coat protein
24.1
